# Tested on: SK-LU-1
# assay_explanation: relative viability (nuclei count vs DMSO), 5 days (fraction); higher = more cells survive
# condition_label: first compound 0.8 µM
Entries and their measured relative viability follow.

compound: CCCCCCCCCCCC1=C(O)C(=O)C=C(O)C1=O [Embelin] + CCNC(=O)c1noc(-c2cc(C(C)C)c(O)cc2O)c1-c1ccc(CN2CCOCC2)cc1 [Luminespib] (partner 0.01 µM)
relative viability: 0.186

compound: CCCCCCCCCCCC1=C(O)C(=O)C=C(O)C1=O [Embelin] + Cc1nc(NC(=O)N2CCC[C@H]2C(N)=O)sc1-c1ccnc(C(C)(C)C(F)(F)F)c1 [Alpelisib] (partner 2 µM)
relative viability: 1.31

compound: CCCCCCCCCCCC1=C(O)C(=O)C=C(O)C1=O [Embelin] + O=C(CCCCCCC(=O)Nc1ccccc1)NO [Vorinostat] (partner 1 µM)
relative viability: 0.954

compound: CCCCCCCCCCCC1=C(O)C(=O)C=C(O)C1=O [Embelin] + Cc1nc(Nc2ncc(C(=O)Nc3c(C)cccc3Cl)s2)cc(N2CCN(CCO)CC2)n1 [Dasatinib] (partner 0.075 µM)
relative viability: 0.191
